system: SK-MEL-2; experiment: Cytotoxicity against human SK-MEL-2 cells assessed as cell growth at 10^-5 M after 48 hrs by sulforhodamine B assay; format: functional; conditions: SK-MEL-2, 48 h, read-out: Activity
Below, each entry is listed with its recorded growth at 10 µM.

{"compound": "CN1C(=O)C(=Cc2cn(CC(O)Cn3cc(C=C4C(=O)N(C)C(=O)N(C)C4=O)c4ccccc43)c3ccccc23)C(=O)N(C)C1=O", "readout.unit": "%", "growth at 10 µM": 118}
{"compound": "O=C1NC(=O)C(=Cc2cn(CC(O)Cn3cc(C=C4C(=O)NC(=O)NC4=O)c4ccccc43)c3ccccc23)C(=O)N1", "readout.unit": "%", "growth at 10 µM": 113}
{"compound": "COc1cc(/C=C2\\C(=O)Nc3ccccc32)cc(OC)c1O", "readout.unit": "%", "growth at 10 µM": 50.4}
{"compound": "O=C1Nc2ccccc2/C1=C/c1cn(CC(O)Cn2cc(/C=C3\\C(=O)Nc4ccccc43)c3ccccc32)c2ccccc12 (stereo not given)", "readout.unit": "%", "growth at 10 µM": -57.6}
{"compound": "CC1=NN(c2cccc(Cl)c2)C(=O)/C1=C\\c1cn(CC(O)Cn2cc(/C=C3\\C(=O)N(c4cccc(Cl)c4)N=C3C)c3ccccc32)c2ccccc12", "readout.unit": "%", "growth at 10 µM": 115}
